# credit: patent US11753407B2

- Tested on: SMN2 minigene mRNA (SMN2-A minigene) in HEK293H cells
- run description: SMN2 minigene mRNA splicing RT-qPCR assay in cultured cells
- Type: cell-based, human
- condition details: Homo sapiens, HEK293-H; concentration increasing full length SMN2 mRNA 1.5-fold relative to vehicle-treated cells; HEK293H cells with SMN2-A minigene, 24 hours, 7-point concentration data; read-out: EC1.5x for production of full length SMN2 mRNA
experimental readout: EC (1.5-fold increase)

                                   compound    experimental_readout     result
0  COc1ccc(-c2cc(=O)n3cc(N4CCNCC4)cc(OC)c3n2)cc1OC  EC (1.5-fold increase)  1 to 3 µM

The compound `CCc1cc(-c2cc(=O)n3cc(N4C[C@@H](C)N[C@@H](C)C4)ccc3n2)cn2cc(C)nc12` showed EC (1.5-fold increase) equal to < 0.1 µM

The compound `COc1ccc(-c2ccc3nc(C4CCN(C)CC4)cc(=O)n3c2)cc1F` showed EC (1.5-fold increase) equal to 0.3 to 1 µM

The compound `Cc1cn2cc(-c3cc(=O)n4cc(N5C[C@@H](C)N[C@@H](C)C5)ccc4n3)cc(C(F)(F)F)c2n1` showed EC (1.5-fold increase) equal to < 0.1 µM

The compound `Cc1cc(-c2cc(=O)n3cc(N4CCNCC4)ccc3n2)cc2cn(C)nc12` showed EC (1.5-fold increase) equal to < 0.1 µM

The compound `CCc1nc(C)cn2nc(-c3cc(=O)n4cc(N5CCCNCC5)ccc4n3)cc12` showed EC (1.5-fold increase) equal to < 0.1 µM

###

melting point values, listed per item

>>> print(df.to_string())
                                   compound         result
0  Cc1nc2ccc(-c3cc(=O)n4cc(N5CCC(N)CC5)ccc4c3)cc2o1 [Compound 326]  288 to 290 °C
1  Cc1cn2nc(-c3cc(=O)n4cc(C5=CCNCC5)ccc4n3)cc2c(C)n1 [Cpd 342]  207 to 210 °C
2  COc1ccc(-c2cc(=O)n3cc(N4CCN[C@@H](C)C4)ccc3n2)cc1C(F)(F)F [Compound 69]  195 to 200 °C
3  Cc1cn2nc(-c3cc(=O)n4cc(C5=CCN(C(C)C)CC5)ccc4n3)cc2c(C)n1 [Compound 355]  186 to 189 °C
4  CCCNC1CCN(c2cc(C)c3nc(-c4ccc(OC)c(OC)c4)cc(=O)n3c2)CC1 [Cpd 407]  178 to 184 °C
5  Cc1nc2ccc(-c3cc(=O)n4cc(N5CCN(C)CC5)ccc4n3)cc2s1 [Compound 256]  230 to 234 °C

The compound Cc1cn2nc(-c3cc(=O)n4cc(N5CCN6CCC[C@@H]6C5)ccc4n3)cc2c(C)n1 [Compound 337] showed melting point equal to 228 to 230 °C

The compound O=c1cc(-c2ccccc2)nc2ccc(N3CCNCC3)cn12 [Compound 33] showed melting point equal to 151 to 153 °C

The compound Cc1cn2nc(-c3cc(=O)n4cc(N5CCN6CCC[C@@H]6C5)ccc4n3)cc2cn1 [Compound 467] showed melting point equal to 240 to 250 °C

###

EC (1.5-fold increase) values, listed per item
- Tested on: SMN2 minigene mRNA (SMN2-A minigene) in HEK293H cells
- run description: SMN2 minigene mRNA splicing RT-qPCR assay in cultured cells
- Format: cell-based, human
- condition details: Homo sapiens, HEK293-H; concentration increasing full length SMN2 mRNA 1.5-fold relative to vehicle-treated cells; HEK293H cells with SMN2-A minigene, 24 hours, 7-point concentration data; read-out: EC1.5x for production of full length SMN2 mRNA

Examples with answers:
                                        smi    experimental_readout       result
0  CCN1CCN(c2ccc3cc(-c4ccc5nc(C)oc5c4)cc(=O)n3c2)C[C@@H]1C  EC (1.5-fold increase)  0.3 to 1 µM
1  Cc1cn2nc(-c3cc(=O)n4cc(N5CCC(CN6CCCC6)CC5)ccc4n3)cc2c(C)n1  EC (1.5-fold increase)  0.3 to 1 µM
2  CCc1cc(-c2cc(=O)n3cc(N4CCNCC4)ccc3n2)cn2cc(C)nc12  EC (1.5-fold increase)     < 0.1 µM
3  Cc1nc2ccc(-c3cc(=O)n4cc(C5=CCNCC5)ncc4n3)cc2o1.Cl  EC (1.5-fold increase)     < 0.1 µM

Turning now to a further record.
The compound `Cc1nc2c(F)cc(-c3cc(=O)n4cc(N5CCN(C)CC5)ccc4n3)cc2o1` showed EC (1.5-fold increase) equal to < 0.1 µM

###

experimental readout: melting point

Examples with answers:
                                   molecule  experimental_readout         result
0  COc1ccc(-c2cc(=O)n3cc(C4CCNCC4)cc(C)c3n2)cc1OC         melting point  176 to 181 °C
1  CCCN1CC=C(c2ccc3nc(-c4cc5c(C)nc(C)cn5n4)cc(=O)n3c2)CC1         melting point  191 to 193 °C
2  Cc1cc2cc(-c3cc(=O)n4cc(N5CCN(CCO)CC5)ccc4n3)oc2c(C)n1         melting point  256 to 258 °C

The molecule `Cc1cn2cc(-c3cc(=O)n4cc(N5CCN[C@H](C)C5)ccc4n3)cc(C(F)(F)F)c2n1` showed melting point equal to 303 to 306 °C

The molecule `Cc1cn2nc(-c3cc(=O)n4cc(C5CCN(CCO)CC5)cc(C)c4n3)cc2c(C)n1` showed melting point equal to 224 to 233 °C

###

melting point values, listed per item

                                   molecule  experimental_readout         result
0  COc1ccc(-c2cc(=O)n3cc(C4=CCN(C)CC4)ccc3n2)cc1F [Compound 204]         melting point  129 to 132 °C
1  COc1ccc(-c2cc(=O)n3cc(N4C[C@@H](C)N[C@@H](C)C4)cc(C)c3n2)cc1OC [Compound 332]         melting point  225 to 233 °C
2  CCCN1CCN(c2ccc3nc(-c4cc(F)c5nc(C)oc5c4)cc(=O)n3c2)CC1 [Compound 310]         melting point  175 to 178 °C
3  Cc1cn2cc(-c3cc(=O)n4cc(N5CCC(N(C)C)CC5)ccc4n3)ccc2n1 [Compound 432]         melting point  204 to 206 °C
4  O=c1cc(-c2cc(F)cc(F)c2)nc2ccc(N3CCNCC3)cn12 [Compound 79]         melting point  195 to 198 °C
5  Cc1cc2cc(-c3cc(=O)n4cc(N5CCNCC5)ccc4n3)oc2c(C)n1 [Cpd 486]         melting point  198 to 200 °C
6  Cc1cn2nc(-c3cc(=O)n4cc(N5CCN(CCO)[C@H](C)C5)cc(C)c4n3)cc2c(C)n1 [Compound 673]         melting point  273 to 281 °C
7  CC1(C)CN(c2ccc3nc(-c4ccc5c(c4)OCCO5)cc(=O)n3c2)CCN1 [Compound 36]         melting point  196 to 198 °C
8  Cc1cn2nc(-c3cc(=O)n4cc(N5CCC(N6CCCC6)CC5)ccc4n3)cc2c(C)n1 [Compound 425]         melting point  215 to 218 °C
9  COCCNC1CCN(c2cc(C)c3nc(-c4ccc(OC)c(OC)c4)cc(=O)n3c2)CC1 [Compound 456]         melting point  178 to 182 °C

The molecule Cc1cn2nc(-c3cc(=O)n4cc(C5=C[C@H](C)N[C@@H](C)C5)ccc4n3)cc2c(C)n1 [Cpd 798] showed melting point equal to 228 to 231 °C

The molecule COc1ccc(-c2cc(=O)n3cc(N4CCN[C@@H](C)C4)cc(C)c3n2)cc1F [Compound 327] showed melting point equal to 198 to 202 °C

The molecule Cc1nc2ccc(-c3cc(=O)n4cc(N5CC[C@H](N(C)C)C5)ccc4n3)cc2o1 [Compound 241] showed melting point equal to 189 to 193 °C

The molecule Cc1cn2cc(-c3cc(=O)n4cc(N5C[C@@H](C)N[C@@H](C)C5)ccc4n3)ccc2n1 [Compound 117] showed melting point equal to 181 to 186 °C

The molecule C[C@H]1CN(c2ccc3nc(-c4cc(F)cc(C#N)c4)cc(=O)n3c2)CCN1 [Compound 230] showed melting point equal to 185 to 188 °C

The molecule C[C@@H]1CN(c2ccc3nc(-c4ccc5c(c4)OCO5)cc(=O)n3c2)C[C@H](C)N1 [Compound 21] showed melting point equal to 198 to 201 °C
